property label: melting point

Answered examples (4):
compound	melting point
CC(=O)N1CCc2c(sc(C)c2C(=O)CN2CCC(c3noc4cc(F)ccc34)CC2)C1	92 to 94 °C
COc1c(Cl)cccc1N1CN(C)C(=S)n2ncnc21	208 to 210 °C
Nc1cc(S(=O)c2ccc(-c3ccccc3)cc2)ccc1Cl (centres undefined)	134 to 137 °C
Nc1ncc(-c2ccc3c(c2)CCC(N2CCOCC2)CC3)c(N)n1 (centres undefined)	118 °C

List melting point for every entry below, keeping the order given.
1. COc1cc(OC)nc(NC(=O)NS(=O)(=O)Nn2cccc2C(=O)N(C)C)n1
2. COc1ccc(CCCCOc2cc(-c3nc4cc(C(=O)O)ccc4[nH]3)ccc2OC)cc1
3. COc1cc2c(cc1OC)CN(CCCCOc1ccc(NC(=O)c3cnc4ccccc4n3)cc1)CC2
4. Cc1cccc(-c2n[nH]cc2-c2ccc(F)c(-c3ccc(N4CCOCC4)nc3)c2)n1
5. COc1cc2ncnc(N3CCC(CN)CC3)c2cc1OC

1. 150 to 152 °C
2. 167 to 169 °C
3. 141 °C
4. 85 to 87 °C
5. 144 to 146 °C

Would you mind listing melting point for each of the following compounds?
1. COC(=O)c1sccc1NC(C)=O
2. CN(C)c1cccc(OC(=O)NC2C(=O)N(CC34CC5CC(CC(C5)C3)C4)c3ccccc3N(c3ccccc3)C2=O)c1 (centres undefined)
3. CCCCCCCCCCCCCCCCCCN=C=NCCCCCCCCCCCCCCCCCC
4. CC(C)n1nc(-c2ccccc2)c(-c2ccc(F)cc2)c1CBr

["93 to 95 °C", "130 to 132 °C", "65 °C", "93 to 95 °C"]

Report melting point for each item below.
1. C=C(CC)C(=O)c1ccc(OCC(=O)O)c(Cl)c1
2. CNC(=S)NS(=O)(=O)c1cc(CCNC(=O)c2cc(Cl)ccc2OC)ccc1-c1ccccc1
3. Cn1cc(-c2ccccc2)c(=O)c(-c2ccc(-c3ccccc3)cc2)c1
4. CCCS(=O)(=O)NNC(=O)NNS(=O)(=O)CCC
5. CS(=O)(=O)Nc1nc(CN2CCN(C(c3ccccc3)c3ccccc3)CC2)cs1

1: 83.5 to 85.5 °C; 2: 192 to 196 °C; 3: 186 to 190 °C; 4: 191 to 194 °C; 5: 177 to 179 °C

For each of the items listed, what is its melting point?
1. Cc1oc(-c2ccccc2)nc1CCC(=O)c1ccc(CCCC2OC(=O)NC2=O)cc1 (centres undefined)
2. CC(COc1cccc2ccccc12)Nc1ccc(C(=O)O)cc1 (centres undefined)
3. CC(C)(C)OC(=O)NNC(=N)C(Cl)(Cl)Cl
4. O=C1CCCC(n2nc(-c3c(-c4ccccc4)nn4ccccc34)ccc2=O)C1 (centres undefined)
5. CCCCOC(=O)COc1ccc(C(=O)Nc2ccc(C)cc2Sc2ccccc2-c2nnn[nH]2)cc1
6. CN1C(=O)CCc2cc(N3C[C@H](C(N)=O)OC3=O)cc(F)c21

["184 to 185 °C", "194 to 197 °C", "150 °C", "126 to 127 °C", "161 to 162 °C", "260 to 262 °C"]

Give me melting point for each of these compounds, listed below.
1. NC(=O)c1nc(-c2cccc(O)c2)nc2c1[nH]c(=O)n2-c1ccccc1-c1ccccc1
2. CCCCOCCOc1ccc(-c2ccc(N3CC(C)C(C)C3)c(C=C(C)C(=O)O)c2)cc1 (centres undefined)
3. Cn1cc(C2=C(c3c4n(c5ccccc35)CCC(CNC(=O)OC(C)(C)C)C4)C(=O)OC2=O)c2ccccc21 (centres undefined)
4. Cc1nc2c3c(c(C(=O)NCCO)cc2n1C)CCC1(Cc2ccccc2C1)N3
5. Nc1nc(-c2cccnc2Cl)c(-c2cccnc2Cl)o1
6. CCN(Cc1cc(Br)ccc1N)c1ccc(C(N)=O)nn1
7. CN(C)c1nc2sc3c(NCc4ccco4)ncnc3c2c2c1CCC2(C)C
8. COc1ccc2cc(NC(C)=O)cc(C)c2n1

1: 293 to 296 °C; 2: 126 to 128 °C; 3: 124 to 126 °C; 4: 167 to 168 °C; 5: 243 to 244 °C; 6: 208 to 210 °C; 7: 89.3 to 91 °C; 8: 193 to 196 °C

Batch: melting point for all items listed.
1. CCc1oc2ccc(Cl)cc2c1C(=O)c1cc(Br)c(O)c(Br)c1
2. Nc1c([N+](=O)[O-])cc(Br)c2c1CCN(Cc1ccc(C(F)(F)F)cc1)C2

1. 126 to 128 °C
2. 131 to 133 °C
